Tgt: His tagged PTPN2 (TC45) protein (Homo sapiens, UniProt P17706)
Construct: made in house
Sequence (P17706 with tags, fused parts or gaps isoform P17706-2): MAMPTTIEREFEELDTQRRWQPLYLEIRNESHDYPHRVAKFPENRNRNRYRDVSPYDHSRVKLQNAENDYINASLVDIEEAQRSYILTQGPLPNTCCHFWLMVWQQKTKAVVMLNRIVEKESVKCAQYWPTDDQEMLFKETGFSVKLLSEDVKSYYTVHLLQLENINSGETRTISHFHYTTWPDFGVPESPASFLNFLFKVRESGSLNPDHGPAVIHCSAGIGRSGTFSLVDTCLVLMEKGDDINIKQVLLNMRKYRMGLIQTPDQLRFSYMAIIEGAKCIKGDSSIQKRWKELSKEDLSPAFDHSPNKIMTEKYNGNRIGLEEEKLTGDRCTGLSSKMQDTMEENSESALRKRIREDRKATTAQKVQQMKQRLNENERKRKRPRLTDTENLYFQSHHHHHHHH
Measurement Protocol: Mobility shift assay (MSA) for potency of PTPN2 inhibitors
Format: biochemical
Assay Conditions: read-out: PTPN2 MSA IC50

{"Compound": "CC(COc1ccc2cc(O)c(N3CC(=O)NS3(=O)=O)c(F)c2c1)C1CC1 (stereo not drawn) [Compound 171]", "Tgt": "His tagged PTPN2 (TC45) protein (Homo sapiens, UniProt P17706)", "IC50": "< 1 nM"}
{"Compound": "CCNC(=O)NCCOc1ccc2cc(O)c(N3CC(=O)NS3(=O)=O)c(F)c2c1 [Compound 270]", "Tgt": "His tagged PTPN2 (TC45) protein (Homo sapiens, UniProt P17706)", "IC50": "1 to 10 nM"}
{"Compound": "COC(=O)[C@@H](N)CCOc1ccc2cc(O)c(N3CC(=O)NS3(=O)=O)c(F)c2c1 [Compound 317]", "Tgt": "His tagged PTPN2 (TC45) protein (Homo sapiens, UniProt P17706)", "IC50": "1 to 10 nM"}
{"Compound": "CCOCCCOc1ccc2cc(O)c(N3CC(=O)NS3(=O)=O)c(F)c2c1 [Compound 216]", "Tgt": "His tagged PTPN2 (TC45) protein (Homo sapiens, UniProt P17706)", "IC50": "1 to 10 nM"}
{"Compound": "O=C1CN(c2c(O)cc3ccc(OCC4CC4)cc3c2F)S(=O)(=O)N1 [Compound 250]", "Tgt": "His tagged PTPN2 (TC45) protein (Homo sapiens, UniProt P17706)", "IC50": "1 to 10 nM"}
{"Compound": "CC(C)(C)CC1CCN(c2ccc3cc(O)c(N4CC(=O)NS4(=O)=O)c(F)c3c2)C1 (stereo not drawn) [Compound 220]", "Tgt": "His tagged PTPN2 (TC45) protein (Homo sapiens, UniProt P17706)", "IC50": "10 to 100 nM"}
{"Compound": "CC(C)CNc1ccc2cc(O)c(N3CC(=O)NS3(=O)=O)c(F)c2c1 [Compound 201]", "Tgt": "His tagged PTPN2 (TC45) protein (Homo sapiens, UniProt P17706)", "IC50": "1 to 10 nM"}
{"Compound": "Cc1nn(C)cc1S(=O)(=O)N1CC=C(c2ccc3cc(O)c(N4CC(=O)NS4(=O)=O)c(F)c3c2)C1 [Compound 310]", "Tgt": "His tagged PTPN2 (TC45) protein (Homo sapiens, UniProt P17706)", "IC50": "< 1 nM"}
{"Compound": "CNCCCc1ccc2cc(O)c(N3CC(=O)NS3(=O)=O)c(F)c2c1 [Compound 139]", "Tgt": "His tagged PTPN2 (TC45) protein (Homo sapiens, UniProt P17706)", "IC50": "1 to 10 nM"}
{"Compound": "O=C1CN(c2c(O)cc3ccc(-c4cnn(CC5CC5)c4)cc3c2F)S(=O)(=O)N1 [Compound 132]", "Tgt": "His tagged PTPN2 (TC45) protein (Homo sapiens, UniProt P17706)", "IC50": "< 1 nM"}
{"Compound": "O=C1CN(c2c(O)cc3ccc(C4CCCO4)cc3c2F)S(=O)(=O)N1 (stereo not drawn) [Compound 190]", "Tgt": "His tagged PTPN2 (TC45) protein (Homo sapiens, UniProt P17706)", "IC50": "1 to 10 nM"}
{"Compound": "O=C1CN(c2c(O)cc3ccc(C4CCN(CC5CC5)C4)cc3c2F)S(=O)(=O)N1 (stereo not drawn) [Compound 222]", "Tgt": "His tagged PTPN2 (TC45) protein (Homo sapiens, UniProt P17706)", "IC50": "> 100 nM"}
{"Compound": "O=C1CN(c2c(O)cc3ccc(C4=CCN(S(=O)(=O)CC5COCCO5)C4)cc3c2F)S(=O)(=O)N1 (stereo not drawn) [Compound 292]", "Tgt": "His tagged PTPN2 (TC45) protein (Homo sapiens, UniProt P17706)", "IC50": "< 1 nM"}
{"Compound": "N#CCC1(COc2ccc3cc(O)c(N4CC(=O)NS4(=O)=O)c(F)c3c2)CC1 [Compound 130]", "Tgt": "His tagged PTPN2 (TC45) protein (Homo sapiens, UniProt P17706)", "IC50": "< 1 nM"}
{"Compound": "O=C1CN(c2c(O)cc3ccc(C4CCCN4C(=O)C4CC4)cc3c2F)S(=O)(=O)N1 (stereo not drawn) [Compound 187]", "Tgt": "His tagged PTPN2 (TC45) protein (Homo sapiens, UniProt P17706)", "IC50": "1 to 10 nM"}
{"Compound": "N#CCCCCS(=O)(=O)N1CC=C(c2ccc3cc(O)c(N4CC(=O)NS4(=O)=O)c(F)c3c2)C1 [Compound 293]", "Tgt": "His tagged PTPN2 (TC45) protein (Homo sapiens, UniProt P17706)", "IC50": "< 1 nM"}
{"Compound": "O=C1CN(c2c(O)cc3ccc(C4CCCN4)cc3c2F)S(=O)(=O)N1 (stereo not drawn) [Compound 258]", "Tgt": "His tagged PTPN2 (TC45) protein (Homo sapiens, UniProt P17706)", "IC50": "1 to 10 nM"}
{"Compound": "COCCNCCOc1ccc2cc(O)c(N3CC(=O)NS3(=O)=O)c(F)c2c1 [Compound 138]", "Tgt": "His tagged PTPN2 (TC45) protein (Homo sapiens, UniProt P17706)", "IC50": "1 to 10 nM"}
{"Compound": "O=C1CN(c2c(O)cc3ccc(NCCc4ccccc4)cc3c2F)S(=O)(=O)N1 [Compound 164]", "Tgt": "His tagged PTPN2 (TC45) protein (Homo sapiens, UniProt P17706)", "IC50": "< 1 nM"}
{"Compound": "O=C1CN(c2c(O)cc3ccc(C4=CCNC4)cc3c2F)S(=O)(=O)N1 [Compound 265]", "Tgt": "His tagged PTPN2 (TC45) protein (Homo sapiens, UniProt P17706)", "IC50": "1 to 10 nM"}
{"Compound": "N#CCCCNc1ccc2cc(O)c(N3CC(=O)NS3(=O)=O)c(F)c2c1 [Compound 174]", "Tgt": "His tagged PTPN2 (TC45) protein (Homo sapiens, UniProt P17706)", "IC50": "1 to 10 nM"}
{"Compound": "O=C1CN(c2c(O)cc3ccc(C4CCCN(S(=O)(=O)C5CC5)C4)cc3c2F)S(=O)(=O)N1 (stereo not drawn) [Compound 186]", "Tgt": "His tagged PTPN2 (TC45) protein (Homo sapiens, UniProt P17706)", "IC50": "1 to 10 nM"}
{"Compound": "O=C1CN(c2c(O)cc3ccc(NCCCC(F)(F)F)cc3c2F)S(=O)(=O)N1 [Compound 166]", "Tgt": "His tagged PTPN2 (TC45) protein (Homo sapiens, UniProt P17706)", "IC50": "1 to 10 nM"}
{"Compound": "O=C1CN(c2c(O)cc3ccc(C4=CCN(S(=O)(=O)CC5CCCCO5)C4)cc3c2F)S(=O)(=O)N1 (stereo not drawn) [Compound 289]", "Tgt": "His tagged PTPN2 (TC45) protein (Homo sapiens, UniProt P17706)", "IC50": "< 1 nM"}
{"Compound": "O=C1CN(c2c(O)cc3ccc(C4CCCNC4)cc3c2F)S(=O)(=O)N1 (stereo not drawn) [Compound 191]", "Tgt": "His tagged PTPN2 (TC45) protein (Homo sapiens, UniProt P17706)", "IC50": "1 to 10 nM"}
{"Compound": "O=C1CN(c2c(O)cc3ccc(C4CCCOC4)cc3c2F)S(=O)(=O)N1 (stereo not drawn) [Compound 249]", "Tgt": "His tagged PTPN2 (TC45) protein (Homo sapiens, UniProt P17706)", "IC50": "1 to 10 nM"}
{"Compound": "O=C1CN(c2c(O)cc3ccc(CC4CCCN(S(=O)(=O)C5CC5)C4)cc3c2F)S(=O)(=O)N1 (stereo not drawn) [Compound 259]", "Tgt": "His tagged PTPN2 (TC45) protein (Homo sapiens, UniProt P17706)", "IC50": "1 to 10 nM"}
{"Compound": "CC1(CCOc2ccc3cc(O)c(N4CC(=O)NS4(=O)=O)c(F)c3c2)CC1 [Compound 193]", "Tgt": "His tagged PTPN2 (TC45) protein (Homo sapiens, UniProt P17706)", "IC50": "< 1 nM"}
{"Compound": "CNCC(C)(C)CCOc1ccc2cc(O)c(N3CC(=O)NS3(=O)=O)c(F)c2c1 [Compound 163]", "Tgt": "His tagged PTPN2 (TC45) protein (Homo sapiens, UniProt P17706)", "IC50": "< 1 nM"}
{"Compound": "CS(=O)(=O)N1CCC(COc2ccc3cc(O)c(N4CC(=O)NS4(=O)=O)c(F)c3c2)C1 (stereo not drawn) [Compound 173]", "Tgt": "His tagged PTPN2 (TC45) protein (Homo sapiens, UniProt P17706)", "IC50": "< 1 nM"}
{"Compound": "O=C1CN(c2c(O)cc3ccc(C4CCN(S(=O)(=O)C5CC5)C4)cc3c2F)S(=O)(=O)N1 (stereo not drawn) [Compound 101]", "Tgt": "His tagged PTPN2 (TC45) protein (Homo sapiens, UniProt P17706)", "IC50": "< 1 nM"}
{"Compound": "O=C1CN(c2c(O)cc3ccc(OCCC4CC4)cc3c2F)S(=O)(=O)N1 [Compound 211]", "Tgt": "His tagged PTPN2 (TC45) protein (Homo sapiens, UniProt P17706)", "IC50": "< 1 nM"}
{"Compound": "CC(O)CCOc1ccc2cc(O)c(N3CC(=O)NS3(=O)=O)c(F)c2c1 (stereo not drawn) [Compound 156]", "Tgt": "His tagged PTPN2 (TC45) protein (Homo sapiens, UniProt P17706)", "IC50": "< 1 nM"}

FYI, the data here is from patent US20210009542A1.
